Sourced from patent US20240270821A1

# targetEntity: hGcgR (Homo sapiens, UniProt P47871)
# Sequence (P47871 26-477): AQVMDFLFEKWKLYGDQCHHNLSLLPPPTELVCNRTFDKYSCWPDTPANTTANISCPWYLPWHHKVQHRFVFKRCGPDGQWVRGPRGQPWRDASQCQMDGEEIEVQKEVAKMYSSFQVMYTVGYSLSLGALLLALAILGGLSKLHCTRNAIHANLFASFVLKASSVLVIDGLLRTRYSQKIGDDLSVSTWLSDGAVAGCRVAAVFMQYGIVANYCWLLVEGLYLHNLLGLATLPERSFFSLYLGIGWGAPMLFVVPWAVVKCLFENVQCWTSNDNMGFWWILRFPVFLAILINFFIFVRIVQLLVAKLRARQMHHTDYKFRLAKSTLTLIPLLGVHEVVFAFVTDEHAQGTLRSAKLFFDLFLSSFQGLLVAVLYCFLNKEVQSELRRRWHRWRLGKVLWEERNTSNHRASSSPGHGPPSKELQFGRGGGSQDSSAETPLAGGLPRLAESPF
# methodNotes: Functional cAMP activation in the presence of 0.1% casein (no HSA);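 note: intracellular cAMP rise after 30 min at 37 °C, read by HTRF against a cAMP standard curve, scaled from buffer only (0%) to maximal control ligand response (100%)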
# Assay type: cell-based
# experimentalConditions: in the presence of 0.1% casein (no HSA); geometric mean; read-out: Relative cAMP EC50, hGcgR
Starred links: 1 amine or outer side, 2 acyl side, 3 side chain; linkers in the order of their positions; H or OH if unused. Non-standard residues stand in square brackets, D forms with d. Groups on a side chain read outwards from the residue. *: point of attachment. C20 diacid = O=C(O)CCCCCCCCCCCCCCCCCCC(=O)*; C18 diacid = O=C(O)CCCCCCCCCCCCCCCCC(=O)*; γGlu = O=C(O)[C@H](CCC(=O)[*:2])N[*:1]; αMe4Pal = C[C@](N)(Cc1ccncc1)C(=O)O; αMeY = C[C@](N)(Cc1ccc(O)cc1)C(=O)O; αMeF = C[C@](N)(Cc1ccccc1)C(=O)O; 4Pal = N[C@@H](Cc1ccncc1)C(=O)O; αMeL = CC(C)C[C@](C)(N)C(=O)O; αMeS = C[C@](N)(CO)C(=O)O; Orn = NCCC[C@H](N)C(=O)O; AEEA = NCCOCCOCC(=O)O; Aib = CC(C)(N)C(=O)O
quantityKind: EC50
The number alone won't do; follow it with the unit.

substance: H-Y[Aib]QGT[αMeF]TSD[4Pal][αMeS]I[αMeL]LD[Orn]K([γGlu-γGlu-C18 diacid])AQ[αMe4Pal]EFI[dE][αMeY]LIEGGPSSGEPPPSGE-NH2 [Example 1171]
targetEntity: hGcgR (Homo sapiens, UniProt P47871)
EC50: 2.19 nM
--
substance: H-Y[Aib]QGTFTSDFSK[αMeL]LDKK([AEEA-γGlu-C20 diacid])AQ[Aib]AFIEYLLEGGPSSGAPPPGGS-NH2 [Example 18]
targetEntity: hGcgR (Homo sapiens, UniProt P47871)
EC50: 2.7 nM

The record that follows has no EC50 shown yet.
[ask] May I ask what EC50 has been recorded for H-Y[Aib]QGTFTSD[4Pal]SQ[αMeL]LDKK([γGlu-γGlu-C18 diacid])AQ[αMe4Pal]QFIE[αMeY]LIEGGPSSGAPPPSGS-NH2 [Example 934] ?
[reply] 2.73 nM
